Assay: Selectivity index, ratio of IC50 for ovine COX1 to IC50 for human COX2
reported metric: Ratio IC50

compound	result
CS(=O)(=O)c1ccc(C2NN=C(c3ccc([N+](=O)[O-])cc3)O2)cc1 (centres undefined)	133

Ask | Report Ratio IC50 for "CS(=O)(=O)c1ccc(-n2nc(-c3ccc(O)cc3)cc2-c2ccc(C(F)(F)F)cc2)cc1"
Reply | 6.08

Ask | Report Ratio IC50 for "Cc1ccc(-c2c(-c3ccc(S(C)(=O)=O)cc3)c3cccc4ccn2c43)cc1"
Reply | > 5000

Ask | Report Ratio IC50 for "CCOc1ccc(-c2cc(-c3ccc(C(F)(F)F)cc3)n(-c3ccc(S(C)(=O)=O)cc3)n2)cc1"
Reply | 5.77

Entry source: ChEMBL document CHEMBL4138061
